test: EMT-state selective cytotoxicity in co-culture – imaging, PC-3E GFP, TEM4-18 mCherry, primary screen (AID 1345086); conditions: PC-3E GFP / TEM4-18 mCherry co-culture, imaging cell counts; at 1 µM; actives lie on both sides; counts scaled to control wells, 1 = unselective;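 also: cells exposed to compound for 72 h before imaging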;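 as to red/green cell ratio (normalised): normalised mesenchymal count divided by normalised epithelial count so high means epithelial killing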
Recorded red/green cell ratio (normalised) by entry
No unit in the answer, only the number.

CC(Cc1cccc(C(F)(F)F)c1)NCCOC(=O)c1ccccc1 (configuration not stated) ... 0.76
C[C@](N)(Cc1ccc(O)c(O)c1)C(=O)O ... 1.05
CCc1oc2ccccc2c1C(=O)c1cc(Br)c(O)c(Br)c1 ... 0.88
CC1=NN(c2ccccc2)C(=O)C1 ... 0.88
Cc1oncc1C(=O)Nc1ccc(C(F)(F)F)cc1 ... 0.74

Input: Look at this compound and give its reported red/green cell ratio (normalised). CNC1(C)C2CCC(C2)C1(C)C (configuration not stated)
Output: 0.89

Input: Look at this compound and give its reported red/green cell ratio (normalised). `NC[C@H]1O[C@H](O[C@H]2[C@H](O)[C@@H](O[C@H]3O[C@H](CO)[C@@H](O)[C@H](N)[C@H]3O)[C@H](N)C[C@@H]2N)[C@H](N)[C@@H](O)[C@@H]1O`
Output: 1.19

Input: Look at this compound and give its reported red/green cell ratio (normalised). `CC(=O)Oc1ccccc1C(=O)O`
Output: 0.84

Input: Look at this compound and give its reported red/green cell ratio (normalised). `COc1ccc2[nH]cc(CCNC(C)=O)c2c1`
Output: 1.02

Input: Look at this compound and give its reported red/green cell ratio (normalised). `C/C=C/c1ccc(OC)cc1`
Output: 1.24

Input: Look at this compound and give its reported red/green cell ratio (normalised). `Nc1nc(N)nc(-c2cc(Cl)ccc2Cl)n1`
Output: 1.01

Input: Look at this compound and give its reported red/green cell ratio (normalised). `CCN(CC)CCNC(=O)c1cc(Br)c(N)cc1OC`
Output: 0.92

====

Recorded normalised cell number by entry
experiment: EMT-state selective cytotoxicity in co-culture – imaging, PC-3E GFP, TEM4-18 mCherry, primary screen (AID 1345086); conditions: PC-3E GFP / TEM4-18 mCherry co-culture, imaging cell counts; measured here: epithelial PC-3E GFP cell survival; at 1 µM;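 also: cells exposed to compound for 72 h before imaging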
No unit in the answer, only the number.

Record excerpt, results attached:
OCCOCCN1CCN(C2=Nc3ccccc3Sc3ccccc32)CC1 ... 1.08
CO[C@@H]1[C@@H](OC(N)=O)[C@@H](O)[C@H](Oc2ccc3c(O)c(NC(=O)c4ccc(O)c(CC=C(C)C)c4)c(=O)oc3c2C)OC1(C)C ... 1.07
Oc1c(Cl)cc(Cl)c(Cl)c1Cc1c(O)c(Cl)cc(Cl)c1Cl ... 0.83
CN1CCCN=C1COC(=O)C(O)(c1ccccc1)C1CCCCC1 (stereo not given) ... 1.21
CCN(CC)CCOC(=O)C(c1ccccc1)C1CCCCC1 (stereo not given) ... 0.95
C=CCc1ccccc1OCC(O)CNC(C)C (stereo not given) ... 1.2

Input: Look at this compound and give its reported normalised cell number. NC1CCN(c2nc3c(cc2F)c(=O)c(C(=O)O)cn3-c2ccc(F)cc2F)C1 (stereo not given)
Output: 1.14

Input: Look at this compound and give its reported normalised cell number. `O=c1oc2c(O)c(O)cc3c(=O)oc4c(O)c(O)cc1c4c23`
Output: 0.85

Input: Look at this compound and give its reported normalised cell number. `O=C(O)c1cc(O)c(O)c(O)c1`
Output: 1.14

Input: Look at this compound and give its reported normalised cell number. `Cc1ccnc2c1NC(=O)c1cccnc1N2C1CC1`
Output: 1.34

Input: Look at this compound and give its reported normalised cell number. `Cc1c(N(C)C)c(=O)n(-c2ccccc2)n1C`
Output: 1.18

Input: Look at this compound and give its reported normalised cell number. `COc1cc(NS(=O)(=O)c2ccc(N)cc2)ncn1`
Output: 0.74

Input: Look at this compound and give its reported normalised cell number. `CC/C(=C(/CC)c1ccc(O)cc1)c1ccc(O)cc1`
Output: 1.1

Input: Look at this compound and give its reported normalised cell number. `COc1cc2c(N3CCN(C(=O)Nc4ccc(OC(C)C)cc4)CC3)ncnc2cc1OCCCN1CCCCC1`
Output: 1.09

Input: Look at this compound and give its reported normalised cell number. `COc1ccc(C(=O)c2ccccc2)c(O)c1`
Output: 1.15

Input: Look at this compound and give its reported normalised cell number. CC(Oc1c(Cl)cccc1Cl)C1=NCCN1 (stereo not given)
Output: 0.85

Input: Look at this compound and give its reported normalised cell number. Cn1c(=O)c2c(ncn2CC(O)CO)n(C)c1=O (stereo not given)
Output: 0.78

Input: Look at this compound and give its reported normalised cell number. CCCN(CCC)C(=O)C(CCC(=O)O)NC(=O)c1ccccc1 (stereo not given)
Output: 0.92

Input: Look at this compound and give its reported normalised cell number. `C/C=C(/C(=C/C)c1ccc(O)cc1)c1ccc(O)cc1`
Output: 1.12

Input: Look at this compound and give its reported normalised cell number. `COC(=O)Nc1nc2ccc(Sc3ccccc3)cc2[nH]1`
Output: 0.25
